Every entry's value here was drawn from patent US20150105349A1.

- system under test: cloned hTRPM8 channel (human TRPM8 gene, expressed in CHO cells) (Homo sapiens, UniProt Q7Z2W7)
- Construct: host or cells: CHO cells
- Sequence (Q7Z2W7 whole entry): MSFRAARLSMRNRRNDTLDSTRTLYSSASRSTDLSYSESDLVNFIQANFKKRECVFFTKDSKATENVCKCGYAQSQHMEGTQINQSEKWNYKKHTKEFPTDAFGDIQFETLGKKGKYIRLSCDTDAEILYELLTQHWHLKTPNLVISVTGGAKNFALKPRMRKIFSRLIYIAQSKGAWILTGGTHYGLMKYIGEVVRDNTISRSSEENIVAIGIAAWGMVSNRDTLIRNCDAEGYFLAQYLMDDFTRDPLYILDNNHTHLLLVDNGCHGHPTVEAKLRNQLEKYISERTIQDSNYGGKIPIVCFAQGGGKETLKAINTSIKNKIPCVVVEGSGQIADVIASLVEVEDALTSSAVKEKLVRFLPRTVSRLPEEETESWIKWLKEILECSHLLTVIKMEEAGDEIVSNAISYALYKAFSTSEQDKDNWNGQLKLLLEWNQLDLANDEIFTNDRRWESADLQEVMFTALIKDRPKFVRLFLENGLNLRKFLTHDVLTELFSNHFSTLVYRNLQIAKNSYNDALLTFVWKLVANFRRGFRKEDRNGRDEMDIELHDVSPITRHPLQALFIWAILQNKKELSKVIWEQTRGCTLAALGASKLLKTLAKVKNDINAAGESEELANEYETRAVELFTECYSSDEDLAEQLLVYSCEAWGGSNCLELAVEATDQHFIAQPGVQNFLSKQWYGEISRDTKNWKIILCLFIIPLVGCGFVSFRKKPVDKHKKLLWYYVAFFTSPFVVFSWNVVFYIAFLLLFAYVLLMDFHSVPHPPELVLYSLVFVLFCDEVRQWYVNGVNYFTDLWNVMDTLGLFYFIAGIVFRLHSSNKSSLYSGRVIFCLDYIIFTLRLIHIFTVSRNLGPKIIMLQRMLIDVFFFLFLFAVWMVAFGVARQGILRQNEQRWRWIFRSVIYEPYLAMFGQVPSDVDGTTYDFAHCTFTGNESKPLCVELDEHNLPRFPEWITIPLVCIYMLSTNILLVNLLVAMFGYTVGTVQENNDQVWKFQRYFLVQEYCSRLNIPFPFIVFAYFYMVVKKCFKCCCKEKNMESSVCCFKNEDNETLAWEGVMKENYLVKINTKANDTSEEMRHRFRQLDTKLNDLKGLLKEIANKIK
- experiment: agonist activity on cloned hTRPM8 channel, Fluo-8 calcium kit, FLIPR
- Format: cell-based
- assay context: HBPS, 30% volume series; read-out: EC50 (95% C.L.)
result type: EC50 (nM)
Please state the figure in nM; there is no need to write the unit.

Field EC50 (entry CCCCCCCP(=O)(C(C)C)C(C)C [1-7, 1-(Diisopropyl-phosphinoyl)-heptane] ) reads 1600

====

- system under test: cloned hTRPM8 channel (human TRPM8 gene, expressed in CHO cells) (Homo sapiens)
- Construct: host or cells: CHO cells
- experiment: agonist activity on cloned hTRPM8 channel, Fluo-8 calcium kit, FLIPR
- Assay type: cell-based
- assay context: TRPM8 receptor assay
result type: Potency Relative to I-menthol
// no unit, no text: just the number

Assay cloned hTRPM8 channel (human TRPM8 gene, expressed in CHO cells) (Homo sapiens), sample CCCCCCCP(=O)(C(C)C)C(C)C , Potency Relative to I-menthol read: 5.4

Assay cloned hTRPM8 channel (human TRPM8 gene, expressed in CHO cells) (Homo sapiens), sample CCCCCP(=O)(C(C)CC)C(C)CC (stereo not shown) , Potency Relative to I-menthol read: 2.2

Assay cloned hTRPM8 channel (human TRPM8 gene, expressed in CHO cells) (Homo sapiens), sample CCCCCCCCCP(=O)(C(C)C)C(C)C , Potency Relative to I-menthol read: 4.0

Assay cloned hTRPM8 channel (human TRPM8 gene, expressed in CHO cells) (Homo sapiens), sample CCCCCCCCP(=O)(C(C)CC)C(C)CC (stereo not shown) , Potency Relative to I-menthol read: 2.9

Assay cloned hTRPM8 channel (human TRPM8 gene, expressed in CHO cells) (Homo sapiens), sample CCCCCP(=O)(C(C)C)C(C)C , Potency Relative to I-menthol read: 0.7

Assay cloned hTRPM8 channel (human TRPM8 gene, expressed in CHO cells) (Homo sapiens), sample CCCCCCCCP(=O)(C(C)C)C(C)C , Potency Relative to I-menthol read: 5.4

Assay cloned hTRPM8 channel (human TRPM8 gene, expressed in CHO cells) (Homo sapiens), sample CCCCP(=O)(C(C)CC)C(C)CC (stereo not shown) , Potency Relative to I-menthol read: 0.3

Assay cloned hTRPM8 channel (human TRPM8 gene, expressed in CHO cells) (Homo sapiens), sample CCCCCCP(=O)(C(C)C)C(C)C , Potency Relative to I-menthol read: 1.6

Assay cloned hTRPM8 channel (human TRPM8 gene, expressed in CHO cells) (Homo sapiens), sample CCCCCCCP(=O)(C(C)CC)C(C)CC (stereo not shown) , Potency Relative to I-menthol read: 3.4

Assay cloned hTRPM8 channel (human TRPM8 gene, expressed in CHO cells) (Homo sapiens), sample CCCCCCP(=O)(C(C)CC)C(C)CC (stereo not shown) , Potency Relative to I-menthol read: 4.7

====

- system under test: cloned hTRPM8 channel (human TRPM8 gene, expressed in CHO cells) (Homo sapiens, UniProt Q7Z2W7)
- Construct: host or cells: CHO cells
- experiment: agonist activity on cloned hTRPM8 channel, Fluo-8 calcium kit, FLIPR
- Format: cell-based
- assay context: TRPM8 receptor assay; read-out: EC50 μM (95% C, L.)
Field: EC50. Provide a value for each of the molecules that follow.
Please state the figure in µM; there is no need to write the unit.

Field EC50 (entry CCCCCP(=O)(C(C)CC)C(C)CC (stereo not shown) [2-5] ) reads 1.7

Field EC50 (entry CCCCCCCCP(=O)(C(C)C)C(C)C [1-8] ) reads 0.7

Field EC50 (entry CCCCCP(=O)(C(C)C)C(C)C [1-5] ) reads 5.6

Field EC50 (entry CCCCCCCP(=O)(C(C)C)C(C)C [1-7, 1-(Diisopropyl-phosphinoyl)-heptane] ) reads 0.7

Field EC50 (entry CCCCP(=O)(C(C)CC)C(C)CC (stereo not shown) [2-4] ) reads 14.5

Field EC50 (entry CCCCCCP(=O)(C(C)CC)C(C)CC (stereo not shown) [CPS-147, 1-(Di-sec-butyl-phosphinoyl)-hexane] ) reads 0.8

Field EC50 (entry CCCCCCCP(=O)(C(C)CC)C(C)CC (stereo not shown) [CPS-148, 1-(Di-sec-butyl-phosphinoyl)-heptane] ) reads 1.1

Field EC50 (entry CCCCCCCCP(=O)(C(C)CC)C(C)CC (stereo not shown) [2-8] ) reads 1.3

Field EC50 (entry CCCCCCP(=O)(C(C)C)C(C)C [1-6] ) reads 2.4

Field EC50 (entry CCCCCCCCCP(=O)(C(C)C)C(C)C [1-9] ) reads 0.9
